# Test Method Notes: Toxicity in ICR mouse assessed as induction of animal survival rate at 240 mg/kg, ip measured after 14 days
# Assay type: organism-based
# Condition Context: in vivo
Measured Parameter: survival at 336 h (%)
One number for each entry, in %.

Supply reported survival at 336 h belonging to this compound: COc1cc(-c2nc(NC(=O)OCC3=CCCCC3=O)cc3c2[nH]c2ccccc23)cc(OC)c1OC
100

###

For each entry below, report its IC50 value.
# Test Method Notes: Antiproliferative activity against rat 9L-2 cells by MTT assay
# Assay type: functional, cell-based
Answers are plain numbers, in µM.

Some compounds with recorded IC50:
COc1ccc2c(c1)[nH]c1c(C)nccc12 : 47.8
COc1cc(-c2nc(NC(=O)OCC3=CCCCC3=O)cc3c2[nH]c2ccccc23)cc(OC)c1OC : 4.32
COc1cc(-c2nc(N(C(=O)OCC3=CCCCC3=O)C(=O)OCC3=CCCCC3=O)cc3c2[nH]c2ccccc23)cc(OC)c1OC : 4.85

Field: next compound
Answer with the recorded IC50 for the compound listed here: C/C=C/C(=O)OCC1=CCCCC1=O
7.79

Data credit: ChEMBL document CHEMBL4622976
